B1: CPEB3 Ribozyme (parent)
chain: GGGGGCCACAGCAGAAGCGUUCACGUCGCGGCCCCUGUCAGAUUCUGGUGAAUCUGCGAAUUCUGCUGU

Variants of: B1
EXPERIMENTAL_DETAILS: self-cleavage, relative activity (ratio to wild type); higher = more cleavage; co-transcriptional
EXPERIMENTAL_READOUT: self-cleavage
Answers are plain numbers.

>>> data_value("G25A C27U")
0.169

Take each entry in turn and give its self-cleavage.
1. U43C A59U
2. A15U G31U
3. G47C A59U

**Result**
0.68
0.205
0.863

Take each entry in turn and give its self-cleavage.
1. A23C U61G
2. C32U U53G

**Result**
1: 0.855; 2: 0.967
